Values were extracted from patent US20160355483A1.

Biological target: CYP1A2 (Homo sapiens)
Construct: purchased BD GENTEST 459100
Sequence (P05177 1-516): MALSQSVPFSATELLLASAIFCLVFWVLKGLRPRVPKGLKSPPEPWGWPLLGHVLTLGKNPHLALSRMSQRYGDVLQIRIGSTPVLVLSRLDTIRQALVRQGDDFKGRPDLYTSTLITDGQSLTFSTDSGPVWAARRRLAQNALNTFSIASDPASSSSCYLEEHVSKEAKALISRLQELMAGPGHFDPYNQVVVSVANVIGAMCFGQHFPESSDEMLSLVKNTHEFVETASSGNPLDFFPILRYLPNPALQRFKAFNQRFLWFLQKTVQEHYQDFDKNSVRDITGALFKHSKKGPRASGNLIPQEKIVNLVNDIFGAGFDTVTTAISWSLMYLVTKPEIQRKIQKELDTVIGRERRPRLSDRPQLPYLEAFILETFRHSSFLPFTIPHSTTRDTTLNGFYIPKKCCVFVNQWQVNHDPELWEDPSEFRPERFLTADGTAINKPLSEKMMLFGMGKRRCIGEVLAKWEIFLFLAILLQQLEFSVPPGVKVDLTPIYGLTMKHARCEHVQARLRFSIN
Test: CYP (cytochrome P450)-suppressing effect, BD GENTEST kit
Type: in vitro ADME
Protocol: To evaluate the CYP (cytochrome P450)-suppressing activity of the compounds prepared in the examples of the invention, the following experiment was performed. […] The test results were calculated by the following formula: (1−(fluorescence value of the test material/fluorescence value of the vehicle))×100%.
quantityMeasured: CYP(10 μL, %) 1A2

{"molecule": "C[C@H](NC(=O)c1ccc2c(c1)CCCN2Cc1cc(-c2ccccc2C(N)=O)ccc1F)c1ccc([N+](=O)[O-])cc1 [Example 139]", "valueUnit": "%", "result": 94.00}
{"molecule": "C[C@H](NC(=O)c1ccc2c(c1)CCCN2Cc1ccc(-c2ccccc2C(=O)[O-])cc1)c1ccc(C#N)cc1.[Na+] [Example 57]", "valueUnit": "%", "result": 100.32}
{"molecule": "C[C@H](NC(=O)c1ccc2c(c1)OCCN2Cc1ccc(-c2ccccc2C(N)=O)cc1)c1ccc2ccccc2c1 [Example 96]", "valueUnit": "%", "result": 92.41}

###

Target: CYP1A2 (Homo sapiens)
Construct: purchased BD GENTEST 459100
Sequence (P05177 1-516): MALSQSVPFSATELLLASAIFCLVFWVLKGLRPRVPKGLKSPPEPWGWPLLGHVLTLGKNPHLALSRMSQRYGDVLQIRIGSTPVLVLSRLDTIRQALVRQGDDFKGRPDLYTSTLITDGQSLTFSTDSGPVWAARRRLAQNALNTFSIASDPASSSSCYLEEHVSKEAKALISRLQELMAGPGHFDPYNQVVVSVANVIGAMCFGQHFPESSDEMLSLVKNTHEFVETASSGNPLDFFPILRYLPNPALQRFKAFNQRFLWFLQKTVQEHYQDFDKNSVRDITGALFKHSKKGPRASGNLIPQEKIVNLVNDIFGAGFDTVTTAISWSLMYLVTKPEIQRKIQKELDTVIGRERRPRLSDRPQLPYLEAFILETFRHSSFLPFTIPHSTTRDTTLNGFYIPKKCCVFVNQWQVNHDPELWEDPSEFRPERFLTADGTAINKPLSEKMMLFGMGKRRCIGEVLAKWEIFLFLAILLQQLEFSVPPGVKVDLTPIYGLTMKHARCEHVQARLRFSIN
Experiment: CYP (cytochrome P450)-suppressing effect, BD GENTEST kit
Assay type: in vitro ADME
Listed below: CYP(10 μL, %) 1A2 values for each entry.
quantityMeasured: CYP(10 μL, %) 1A2

{"molecule": "Cc1c(C)n(Cc2ccc(-c3ccccc3C(=O)O)cc2)c2ccc(C(=O)NC(C)c3ccc(Br)cc3)cc12 (stereo not shown) [2 (SR1824), SR1824, reference compound]", "quantityMeasured": "CYP(10 μL, %) 1A2", "result": 64.12}
{"molecule": "C[C@H](NC(=O)c1ccc2c(c1)CCCN2Cc1ccc(-c2ccccc2C(=O)O)cc1F)c1ccc(C#N)cc1", "quantityMeasured": "CYP(10 μL, %) 1A2", "result": 97.28}
{"molecule": "C[C@H](NC(=O)c1ccc2c(c1)OCCN2Cc1ccc(-c2ccccc2C(=O)O)cc1)c1ccc([N+](=O)[O-])cc1", "quantityMeasured": "CYP(10 μL, %) 1A2", "result": 100.63}
{"molecule": "C[C@H](NC(=O)c1ccc2c(c1)CCCN2Cc1cccc(-c2ccccc2C(=O)O)c1)c1ccc(C#N)cc1", "quantityMeasured": "CYP(10 μL, %) 1A2", "result": 101.50}
{"molecule": "Cc1ccc([C@H](C)NC(=O)c2ccc3c(c2)CCCN3Cc2ccc(-c3ccccc3C(=O)[O-])cc2)cc1F.[Na+]", "quantityMeasured": "CYP(10 μL, %) 1A2", "result": 100.73}
{"molecule": "C[C@H](NC(=O)c1ccc2c(c1)CCCN2Cc1ccc(-c2ccccc2C(N)=O)cc1F)c1ccc2ccccc2c1", "quantityMeasured": "CYP(10 μL, %) 1A2", "result": 97.62}
{"molecule": "C[C@H](NC(=O)c1ccc2c(c1)CCCN2Cc1ccc(-c2ccccc2C(N)=O)cc1)c1ccc2ccccc2c1", "quantityMeasured": "CYP(10 μL, %) 1A2", "result": 94.56}
